target: T1, Ac-IEPD-AMC
T1 chain: XIEPDX
proteins and their reported Kcat
Please state the figure in s⁻¹; there is no need to write the unit.

wild-type rat granzyme B (protein) IIGGHEAKPHSRPYMAYLQIMDEYSGSKKCGGFLIREDFVLTAAHCSGSKINVTLGAHNIKEQEKMQQIIPVVKIIPHPAYNSKTISNDIMLLKLKSKAKRSSAVKPLNLPRRNVKVKPGDVCYVAGWGKLGPMGKYSDTLQEVELTVQEDQKCESYLKNYFDKANEICAGDPKIKRASFRGDSGGPLVCKKVAAGIVSYGQNDGSTPRAFTKVSTFLSWIKKTMKK ... 1.2
rat granzyme B N218T (protein) IIGGHEAKPHSRPYMAYLQIMDEYSGSKKCGGFLIREDFVLTAAHCSGSKINVTLGAHNIKEQEKMQQIIPVVKIIPHPAYNSKTISNDIMLLKLKSKAKRSSAVKPLNLPRRNVKVKPGDVCYVAGWGKLGPMGKYSDTLQEVELTVQEDQKCESYLKNYFDKANEICAGDPKIKRASFRGDSGGPLVCKKVAAGIVSYGQTDGSTPRAFTKVSTFLSWIKKTMKKS ... 3.6
rat granzyme B I99R (protein) IIGGHEAKPHSRPYMAYLQIMDEYSGSKKCGGFLIREDFVLTAAHCSGSKINVTLGAHNIKEQEKMQQIIPVVKIIPHPAYNSKTRSNDIMLLKLKSKAKRSSAVKPLNLPRRNVKVKPGDVCYVAGWGKLGPMGKYSDTLQEVELTVQEDQKCESYLKNYFDKANEICAGDPKIKRASFRGDSGGPLVCKKVAAGIVSYGQNDGSTPRAFTKVSTFLSWIKKTMKKS ... 0.59

So what does the record say about Kcat for rat granzyme B I99F (protein) IIGGHEAKPHSRPYMAYLQIMDEYSGSKKCGGFLIREDFVLTAAHCSGSKINVTLGAHNIKEQEKMQQIIPVVKIIPHPAYNSKTFSNDIMLLKLKSKAKRSSAVKPLNLPRRNVKVKPGDVCYVAGWGKLGPMGKYSDTLQEVELTVQEDQKCESYLKNYFDKANEICAGDPKIKRASFRGDSGGPLVCKKVAAGIVSYGQNDGSTPRAFTKVSTFLSWIKKTMKKS ?
0.56
